# System: PC-3
# procedureSummary: NCI-60 panel test
# Type: cell-based
# condition: Homo sapiens; PC-3, NCI-60 5-dose study
Overview of reported log10(GI50) across a group of compounds:
Use the decimal logarithm of GI50 (µM).

Would you please look over these solved cases?
Data request: Please give the measured log10(GI50) for this compound: COc1cccc(Oc2ccccc2NC(=O)CNC(=O)c2cccc3ccccc23)c1
Data returned: -0.55

Data request: Next: COc1ccc(Oc2ccccc2NC(=O)CNC(=O)c2cccc3ccccc23)cc1
Data returned: 0.02

Data request: Next: O=C(CNC(=O)c1cccc2ccccc12)Nc1ccccc1Oc1ccc(O)cc1
Data returned: 0.12

Data request: Next: O=C(CNC(=O)c1cccc2ccccc12)Nc1ccccc1Oc1ccccc1
Data returned: -0.52

Continuing:
Data request: Please give the measured log10(GI50) for this compound: O=C(CNC(=O)c1cccc2ccccc12)Nc1ccccc1Oc1cccc(O)c1
Data returned: 0.85

----------
# procedureSummary: Pharmacokinetics (PK) of AOH1160 in animals
# Assay type: in vivo, Rat
# condition: rat, in vivo, po, 20 mg/kg, Rat PO 20 mg/kg, BID dosing
measuredQuantity: half-life (h)
State the answer as a number, implicitly in h.

Data request: Please give the measured half-life for this compound: O=C(CNC(=O)c1cccc2ccccc12)Nc1ccccc1Oc1ccccc1 [AOH1160]
Data returned: 4.3

----------
Overview of reported log10 GI50 across a group of compounds:
# Test system: RPMI-8226
Use the decimal logarithm of GI50 (nM).

Would you please look over these solved cases?
Data request: Please give the measured log10 GI50 for this compound: O=C(CNC(=O)c1cccc2ccccc12)Nc1ccccc1Oc1ccccc1
Data returned: 2.50

Data request: Next: O=C(CNC(=O)c1cccc2ccccc12)Nc1ccccc1Oc1cccc(O)c1
Data returned: 3.91

Data request: Next: COc1ccc(Oc2ccccc2NC(=O)CNC(=O)c2cccc3ccccc23)cc1
Data returned: 3.05

Continuing:
Data request: Please give the measured log10 GI50 for this compound: COc1cccc(Oc2ccccc2NC(=O)CNC(=O)c2cccc3ccccc23)c1
Data returned: 2.98

Data request: Next: O=C(CNC(=O)c1cccc2ccccc12)Nc1ccccc1Oc1ccc(O)cc1
Data returned: 2.99

----------
Overview of reported GI50 across a group of compounds:
# Test system: COLO 205
State the answer as a number, implicitly in nM.

Would you please look over these solved cases?
Data request: Please give the measured GI50 for this compound: O=C(CNC(=O)c1cccc2ccccc12)Nc1ccccc1Oc1ccc(O)cc1
Data returned: 794

Data request: Next: COc1ccc(Oc2ccccc2NC(=O)CNC(=O)c2cccc3ccccc23)cc1
Data returned: 646

Data request: Next: O=C(CNC(=O)c1cccc2ccccc12)Nc1ccccc1Oc1ccccc1
Data returned: 309

Data request: Next: O=C(CNC(=O)c1cccc2ccccc12)Nc1ccccc1Oc1cccc(O)c1
Data returned: 14800

Continuing:
Data request: Please give the measured GI50 for this compound: COc1cccc(Oc2ccccc2NC(=O)CNC(=O)c2cccc3ccccc23)c1
Data returned: 282

----------
# procedureSummary: Pharmacokinetics (PK) of AOH1160 in animals
# Assay type: in vivo, Rat
# condition: rat, in vivo, po, 20 mg/kg, Rat PO 20 mg/kg, BID dosing
measuredQuantity: AUC(0-inf) (ng·h/mL)
State the answer as a number, implicitly in ng·h/mL.

Data request: Please give the measured AUC(0-inf) for this molecule: O=C(CNC(=O)c1cccc2ccccc12)Nc1ccccc1Oc1ccccc1
Data returned: 429

Numbers sourced from patent US12054447B2.
